target: baculovirus-expressed ALK (Homo sapiens); assay: ALK kinase inhibition, TRF/ELISA; format: biochemical; details: read-out: ALK Potency
Sequence (Q9UM73 19-1620): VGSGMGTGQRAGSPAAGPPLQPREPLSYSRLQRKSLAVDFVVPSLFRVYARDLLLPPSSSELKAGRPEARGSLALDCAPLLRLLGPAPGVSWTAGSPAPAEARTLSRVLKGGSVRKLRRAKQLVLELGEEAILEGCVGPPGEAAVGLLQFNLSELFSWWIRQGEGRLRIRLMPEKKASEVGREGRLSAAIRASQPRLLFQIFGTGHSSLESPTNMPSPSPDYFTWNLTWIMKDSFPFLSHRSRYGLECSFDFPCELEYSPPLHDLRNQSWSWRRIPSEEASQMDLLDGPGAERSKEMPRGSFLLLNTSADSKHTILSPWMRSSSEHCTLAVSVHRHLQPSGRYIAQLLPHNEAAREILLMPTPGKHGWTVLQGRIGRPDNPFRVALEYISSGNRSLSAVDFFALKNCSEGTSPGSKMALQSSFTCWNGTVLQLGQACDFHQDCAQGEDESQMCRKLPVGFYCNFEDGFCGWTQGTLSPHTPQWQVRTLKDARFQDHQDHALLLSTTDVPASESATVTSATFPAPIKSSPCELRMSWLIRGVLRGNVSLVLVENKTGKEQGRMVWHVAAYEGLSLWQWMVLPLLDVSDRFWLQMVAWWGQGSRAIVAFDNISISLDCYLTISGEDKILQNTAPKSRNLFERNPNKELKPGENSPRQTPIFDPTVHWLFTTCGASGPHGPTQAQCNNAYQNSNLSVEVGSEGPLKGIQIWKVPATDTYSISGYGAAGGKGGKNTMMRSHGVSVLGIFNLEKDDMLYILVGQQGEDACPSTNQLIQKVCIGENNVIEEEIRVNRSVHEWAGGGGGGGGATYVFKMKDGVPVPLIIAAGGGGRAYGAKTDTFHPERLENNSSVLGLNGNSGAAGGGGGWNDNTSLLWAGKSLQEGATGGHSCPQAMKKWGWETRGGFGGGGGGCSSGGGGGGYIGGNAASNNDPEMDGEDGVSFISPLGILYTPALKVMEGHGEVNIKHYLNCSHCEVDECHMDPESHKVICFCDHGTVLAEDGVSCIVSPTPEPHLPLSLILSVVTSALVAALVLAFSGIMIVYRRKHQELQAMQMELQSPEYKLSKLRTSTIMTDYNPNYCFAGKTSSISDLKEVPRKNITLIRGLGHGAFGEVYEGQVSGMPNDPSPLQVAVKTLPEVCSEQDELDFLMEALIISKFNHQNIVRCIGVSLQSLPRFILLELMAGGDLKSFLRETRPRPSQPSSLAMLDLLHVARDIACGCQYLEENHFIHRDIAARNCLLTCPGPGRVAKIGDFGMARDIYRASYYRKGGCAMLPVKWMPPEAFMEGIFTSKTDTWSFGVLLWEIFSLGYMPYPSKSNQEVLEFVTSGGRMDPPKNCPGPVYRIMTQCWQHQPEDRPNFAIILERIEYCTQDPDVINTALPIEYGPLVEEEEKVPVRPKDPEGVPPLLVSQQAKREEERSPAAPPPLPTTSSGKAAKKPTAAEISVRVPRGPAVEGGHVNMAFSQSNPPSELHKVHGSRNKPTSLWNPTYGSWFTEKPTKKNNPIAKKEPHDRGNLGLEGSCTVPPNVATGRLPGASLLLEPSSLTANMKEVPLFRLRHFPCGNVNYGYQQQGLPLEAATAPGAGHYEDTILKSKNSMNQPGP
# IC50 annotations
measure.name: IC50

{"columns": ["compound", "experimental.target", "measure.name", "reading"],
 "data": [
  ["NC(=O)[C@@H]1[C@H](Nc2c(Cl)cnc3[nH]c(-c4ccnc(N5CCOCC5)c4)nc23)[C@H]2C=C[C@@H]1C2", "baculovirus-expressed ALK (Homo sapiens)", "IC50", "100 to 1000 nM"],
  ["NC(=O)[C@@H]1[C@H](Nc2c(Br)cnc3[nH]c(-c4ccsc4)nc23)[C@H]2C=C[C@@H]1C2", "baculovirus-expressed ALK (Homo sapiens)", "IC50", "< 100 nM"],
  ["N#Cc1cccc(-c2nc3c(N[C@H]4[C@@H](C(N)=O)[C@@H]5C=C[C@H]4C5)c(Br)cnc3[nH]2)c1", "baculovirus-expressed ALK (Homo sapiens)", "IC50", "100 to 1000 nM"],
  ["CC(=O)N1CCN(Cc2ccc(-c3nc4c(N[C@H]5[C@@H](C(N)=O)[C@@H]6C=C[C@H]5C6)c(Br)cnc4[nH]3)cc2)CC1", "baculovirus-expressed ALK (Homo sapiens)", "IC50", "< 100 nM"],
  ["COc1ccc(CN2CCOCC2)cc1-c1nc2c(N[C@@H]3CCCC[C@H]3NS(C)(=O)=O)c(Cl)cnc2[nH]1", "baculovirus-expressed ALK (Homo sapiens)", "IC50", "100 to 1000 nM"],
  ["NC(=O)[C@@H]1[C@H](Nc2c(Cl)cnc3[nH]c(-c4ccc(C(=O)NC(CO)C(=O)O)cc4)nc23)[C@H]2C=C[C@@H]1C2 (stereo partly drawn)", "baculovirus-expressed ALK (Homo sapiens)", "IC50", "100 to 1000 nM"]
]}

* * *

# IC50 annotations
target: baculovirus-expressed JAK2 kinase (Homo sapiens, UniProt O60674); experiment: biochemical; settings: 0.2 μM ATP; read-out: JAK2 Potency
Sequence (O60674 whole entry): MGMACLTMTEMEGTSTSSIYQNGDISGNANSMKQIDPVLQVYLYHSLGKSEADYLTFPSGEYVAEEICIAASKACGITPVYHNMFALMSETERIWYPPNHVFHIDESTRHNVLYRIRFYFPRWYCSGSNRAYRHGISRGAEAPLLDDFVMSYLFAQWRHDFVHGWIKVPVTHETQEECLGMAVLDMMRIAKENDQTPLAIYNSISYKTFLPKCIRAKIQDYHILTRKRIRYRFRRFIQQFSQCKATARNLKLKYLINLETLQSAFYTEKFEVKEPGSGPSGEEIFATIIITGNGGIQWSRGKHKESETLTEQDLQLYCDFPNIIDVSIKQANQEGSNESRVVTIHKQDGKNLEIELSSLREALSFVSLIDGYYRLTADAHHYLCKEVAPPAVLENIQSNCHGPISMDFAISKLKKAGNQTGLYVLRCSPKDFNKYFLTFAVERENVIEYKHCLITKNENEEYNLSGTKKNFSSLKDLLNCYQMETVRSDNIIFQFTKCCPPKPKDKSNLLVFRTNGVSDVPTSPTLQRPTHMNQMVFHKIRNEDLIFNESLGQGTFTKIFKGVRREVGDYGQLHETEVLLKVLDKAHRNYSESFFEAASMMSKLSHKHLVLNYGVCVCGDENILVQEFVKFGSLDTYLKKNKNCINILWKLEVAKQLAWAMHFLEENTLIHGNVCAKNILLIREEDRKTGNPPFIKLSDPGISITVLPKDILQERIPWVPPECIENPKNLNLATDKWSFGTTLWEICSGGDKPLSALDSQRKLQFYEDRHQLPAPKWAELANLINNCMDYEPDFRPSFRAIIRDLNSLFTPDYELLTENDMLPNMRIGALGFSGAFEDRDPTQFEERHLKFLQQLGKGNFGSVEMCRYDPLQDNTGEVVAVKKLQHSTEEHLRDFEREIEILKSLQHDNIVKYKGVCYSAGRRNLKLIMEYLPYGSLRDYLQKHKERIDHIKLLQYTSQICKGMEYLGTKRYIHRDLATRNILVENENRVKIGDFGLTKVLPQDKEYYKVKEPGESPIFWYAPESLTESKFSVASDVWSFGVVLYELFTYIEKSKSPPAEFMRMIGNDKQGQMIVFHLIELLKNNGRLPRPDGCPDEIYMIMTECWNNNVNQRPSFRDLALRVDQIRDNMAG
Where a name gives a salt, the structure may show the parent alone.

{"columns": ["compound", "experimental.target", "IC50"],
 "data": [
  ["CN(C)c1nc(Cl)c(-c2nc3c(N[C@H]4[C@@H](C(N)=O)[C@@H]5C=C[C@H]4C5)c(Cl)cnc3[nH]2)s1", "baculovirus-expressed JAK2 kinase (Homo sapiens, UniProt O60674)", "< 0.1 µM"],
  ["N#Cc1cccc(-c2nc3c(N[C@H]4[C@@H](C(N)=O)[C@@H]5C=C[C@H]4C5)c(Br)cnc3[nH]2)c1", "baculovirus-expressed JAK2 kinase (Homo sapiens, UniProt O60674)", "< 0.1 µM"],
  ["NC(=O)[C@@H]1[C@H](Nc2c(Br)cnc3[nH]c(-c4sc(N5CCCC5)nc4Cl)nc23)[C@H]2C=C[C@@H]1C2", "baculovirus-expressed JAK2 kinase (Homo sapiens, UniProt O60674)", "< 0.1 µM"],
  ["COc1cc(CN2CC[C@@H](O)C2)ccc1-c1nc2c(N[C@H]3[C@@H](C(N)=O)[C@@H]4C=C[C@H]3C4)c(Cl)cnc2[nH]1", "baculovirus-expressed JAK2 kinase (Homo sapiens, UniProt O60674)", "< 0.1 µM"],
  ["CN(C)c1cccc(-c2nc3c(N[C@@H]4[C@H](C(N)=O)[C@H]5C=C[C@@H]4C5)c(Cl)cnc3[nH]2)c1", "baculovirus-expressed JAK2 kinase (Homo sapiens, UniProt O60674)", "0.1 to 1 µM"],
  ["NC(=O)[C@@H]1[C@H](Nc2ccnc3[nH]c(-c4cccc(CN5CCOCC5)c4)nc23)[C@H]2C=C[C@@H]1C2", "baculovirus-expressed JAK2 kinase (Homo sapiens, UniProt O60674)", "1 to 10 µM"],
  ["NC(=O)CN1CCC(n2cc(-c3nc4c(N[C@H]5[C@@H](C(N)=O)[C@@H]6C=C[C@H]5C6)c(Cl)cnc4[nH]3)cn2)CC1 [Compound LXVI, trifluoroacetic acid salt]", "baculovirus-expressed JAK2 kinase (Homo sapiens, UniProt O60674)", "< 0.1 µM"],
  ["CN1CCC(Oc2cccc(-c3nc4c(N[C@H]5[C@@H](C(N)=O)[C@@H]6C=C[C@H]5C6)c(Cl)cnc4[nH]3)c2)CC1", "baculovirus-expressed JAK2 kinase (Homo sapiens, UniProt O60674)", "< 0.1 µM"],
  ["COc1cc(N(C)C)ccc1-c1nc2c(N[C@H]3[C@@H](C(N)=O)[C@@H]4C=C[C@H]3C4)c(Cl)cnc2[nH]1", "baculovirus-expressed JAK2 kinase (Homo sapiens, UniProt O60674)", "< 0.1 µM"],
  ["NC(=O)[C@@H]1[C@H](Nc2c(Cl)cnc3[nH]c(-c4cncs4)nc23)[C@H]2C=C[C@@H]1C2", "baculovirus-expressed JAK2 kinase (Homo sapiens, UniProt O60674)", "< 0.1 µM"],
  ["NC(=O)[C@@H]1[C@H](Nc2c(Br)cnc3[nH]c(-c4cccc(N5CCOCC5)c4)nc23)[C@H]2C=C[C@@H]1C2", "baculovirus-expressed JAK2 kinase (Homo sapiens, UniProt O60674)", "< 0.1 µM"],
  ["CN1CCN(c2ccc(-c3nc4c(N[C@@H]5[C@H](C(N)=O)[C@H]6C=C[C@@H]5C6)c(Cl)cnc4[nH]3)cc2)CC1", "baculovirus-expressed JAK2 kinase (Homo sapiens, UniProt O60674)", "< 0.1 µM"],
  ["NC(=O)[C@@H]1[C@H](Nc2c(Cl)cnc3[nH]c(-c4ccc(C(=O)O)cc4)nc23)[C@H]2C=C[C@@H]1C2", "baculovirus-expressed JAK2 kinase (Homo sapiens, UniProt O60674)", "< 0.1 µM"],
  ["COc1cc(N(C)C)ccc1-c1nc2c(N[C@H]3[C@@H](C(N)=O)[C@@H]4C=C[C@H]3C4)c(Br)cnc2[nH]1", "baculovirus-expressed JAK2 kinase (Homo sapiens, UniProt O60674)", "< 0.1 µM"],
  ["CN(C)c1ccc(-c2nc3c(N[C@H]4[C@@H](C(N)=O)[C@@H]5C=C[C@H]4C5)c(Cl)cnc3[nH]2)cc1", "baculovirus-expressed JAK2 kinase (Homo sapiens, UniProt O60674)", "< 0.1 µM"],
  ["NC(=O)[C@@H]1[C@H](Nc2c(Cl)cnc3[nH]c(-c4cnn(C5CCNCC5)c4)nc23)[C@H]2C=C[C@@H]1C2", "baculovirus-expressed JAK2 kinase (Homo sapiens, UniProt O60674)", "< 0.1 µM"],
  ["COc1cc(N(C)C)ccc1-c1nc2c(N[C@H]3[C@@H](C(N)=O)[C@@H]4C=C[C@H]3C4)ccnc2[nH]1", "baculovirus-expressed JAK2 kinase (Homo sapiens, UniProt O60674)", "> 10 µM"],
  ["COc1cc(CN2CCN(C(C)=O)CC2)ccc1-c1nc2c(N[C@H]3[C@@H](C(N)=O)[C@@H]4C=C[C@H]3C4)c(Cl)cnc2[nH]1", "baculovirus-expressed JAK2 kinase (Homo sapiens, UniProt O60674)", "< 0.1 µM"],
  ["CC(O)CN1CCN(C(=O)COc2ccc(-c3nc4c(N[C@H]5[C@@H](C(N)=O)[C@@H]6C=C[C@H]5C6)c(Cl)cnc4[nH]3)cc2)CC1 (stereo partly shown)", "baculovirus-expressed JAK2 kinase (Homo sapiens, UniProt O60674)", "< 0.1 µM"],
  ["NC(=O)[C@@H]1[C@H](Nc2c(Cl)cnc3[nH]c(-c4ccccc4Cl)nc23)[C@H]2C=C[C@@H]1C2", "baculovirus-expressed JAK2 kinase (Homo sapiens, UniProt O60674)", "< 0.1 µM"],
  ["CN1CCN(c2ncc(-c3nc4c(N[C@H]5[C@@H](C(N)=O)[C@@H]6C=C[C@H]5C6)c(Cl)cnc4[nH]3)s2)CC1", "baculovirus-expressed JAK2 kinase (Homo sapiens, UniProt O60674)", "< 0.1 µM"],
  ["NC(=O)[C@@H]1[C@H](Nc2c(Cl)cnc3[nH]c(-c4cccc(C(=O)NCC(=O)O)c4)nc23)[C@H]2C=C[C@@H]1C2", "baculovirus-expressed JAK2 kinase (Homo sapiens, UniProt O60674)", "< 0.1 µM"],
  ["COc1cc(N2CCOCC2)ccc1-c1nc2c(N3C[C@@H]4C[C@H]3CN4C[C@H](C)O)c(Cl)cnc2[nH]1", "baculovirus-expressed JAK2 kinase (Homo sapiens, UniProt O60674)", "> 10 µM"],
  ["NC(=O)[C@@H]1[C@H](Nc2c(Cl)cnc3[nH]c(Nc4ccccc4)nc23)[C@H]2C=C[C@@H]1C2", "baculovirus-expressed JAK2 kinase (Homo sapiens, UniProt O60674)", "< 0.1 µM"],
  ["COc1cc(CN(C)C)ccc1-c1nc2c(N[C@H]3[C@@H](C(N)=O)[C@@H]4C=C[C@H]3C4)c(Cl)cnc2[nH]1 [Compound XLVI, trifluoroacetic acid salt]", "baculovirus-expressed JAK2 kinase (Homo sapiens, UniProt O60674)", "< 0.1 µM"]
]}
